Target: Nuclear receptor subfamily 5 group A member 2 (Homo sapiens) (UniProt O00482)
Sequence (O00482 whole entry, looked up): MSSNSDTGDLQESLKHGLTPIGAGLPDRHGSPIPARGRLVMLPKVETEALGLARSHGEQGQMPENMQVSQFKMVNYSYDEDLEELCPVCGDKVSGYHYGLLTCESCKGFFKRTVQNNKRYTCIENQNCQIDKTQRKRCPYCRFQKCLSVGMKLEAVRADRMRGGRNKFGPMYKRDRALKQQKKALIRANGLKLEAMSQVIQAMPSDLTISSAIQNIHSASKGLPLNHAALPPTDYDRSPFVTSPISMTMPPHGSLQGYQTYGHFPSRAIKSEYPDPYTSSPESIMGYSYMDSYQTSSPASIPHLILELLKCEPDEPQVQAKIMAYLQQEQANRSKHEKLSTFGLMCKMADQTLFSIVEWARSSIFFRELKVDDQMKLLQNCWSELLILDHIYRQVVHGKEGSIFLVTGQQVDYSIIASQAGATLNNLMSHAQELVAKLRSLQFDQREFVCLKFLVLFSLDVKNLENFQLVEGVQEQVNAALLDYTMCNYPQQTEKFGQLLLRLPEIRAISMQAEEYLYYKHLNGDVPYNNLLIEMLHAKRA
Test: LRH-1 (NR5A2) inverse agonists, retest, confirmation, cell-based, luminescence (AID 651613);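 note: HEK293T cells co-transfected with LRH-1 and StAR promoter luciferase reporter; 0% = vehicle wells and 100% = parental cells lacking receptor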
Settings: cell-based LRH-1 luciferase reporter, inverse agonism; at 3.6 µM
The source made the active and inactive calls. Cut-off read from the data, not from the text of the source: active = inhibition above about 42%; inactive = the rest.
Possible outcomes: TRUE (active), FALSE (inactive)

>  <molecule>
C=C1[C@@H](C)[C@H]2[C@H](Cc3ccccc3)NC(=O)[C@]23OC(=O)/C=C/[C@H](O)CCC[C@@H](C)C/C=C/[C@H]3[C@@H]1O

>  <assay.target>
Nuclear receptor subfamily 5 group A member 2 (Homo sapiens) (UniProt O00482)

>  <answer.label>
FALSE

$$$$
>  <molecule>
Cc1ccccc1-n1c(/C=C/c2ccccn2)nc2ccccc2c1=O

>  <assay.target>
Nuclear receptor subfamily 5 group A member 2 (Homo sapiens) (UniProt O00482)

>  <answer.label>
TRUE

$$$$
>  <molecule>
CC(=O)OCC12CC(OC(=O)CC(C)C)C(C)=CC1OC1C(O)C(OC(C)=O)C2(C)C12CO2 (stereo not drawn)

>  <assay.target>
Nuclear receptor subfamily 5 group A member 2 (Homo sapiens) (UniProt O00482)

>  <answer.label>
TRUE

$$$$
>  <molecule>
N#Cc1ccc2nc(-c3ccc(CN4CCC(n5c(=O)[nH]c6ccccc65)CC4)cc3)c(-c3ccccc3)nc2c1

>  <assay.target>
Nuclear receptor subfamily 5 group A member 2 (Homo sapiens) (UniProt O00482)

>  <answer.label>
TRUE

$$$$
>  <molecule>
Cc1ccc(-c2cc(-c3ccc(C)cc3)[n+](-c3ccccc3)c(-c3ccc(C)cc3)c2)cc1

>  <assay.target>
Nuclear receptor subfamily 5 group A member 2 (Homo sapiens) (UniProt O00482)

>  <answer.label>
TRUE

$$$$
>  <molecule>
C[C@@H]1O[C@@H](O[C@H]2C[C@@H](O)[C@]3(CO)[C@H]4[C@H](O)C[C@]5(C)[C@@H](C6COC(=O)C6)CC[C@]5(O)[C@@H]4CC[C@]3(O)C2)[C@H](O)[C@H](O)[C@H]1O (stereo partly drawn)

>  <assay.target>
Nuclear receptor subfamily 5 group A member 2 (Homo sapiens) (UniProt O00482)

>  <answer.label>
TRUE

$$$$
>  <molecule>
COC1CC2C=C(C)C=CC=CC(=O)NC(c3ccccc3)CC=CCCC(O)CC(=O)C2=C1O (stereo not drawn)

>  <assay.target>
Nuclear receptor subfamily 5 group A member 2 (Homo sapiens) (UniProt O00482)

>  <answer.label>
TRUE

$$$$
>  <molecule>
c1ccc2c(c1)[IH]c1ccccc1-2

>  <assay.target>
Nuclear receptor subfamily 5 group A member 2 (Homo sapiens) (UniProt O00482)

>  <answer.label>
TRUE

$$$$

====

Below is a list of entries, each paired with its recorded inhibition value.
Biological target: Steroidogenic factor 1 (Homo sapiens) (UniProt Q13285)
Sequence (Q13285 whole entry, looked up): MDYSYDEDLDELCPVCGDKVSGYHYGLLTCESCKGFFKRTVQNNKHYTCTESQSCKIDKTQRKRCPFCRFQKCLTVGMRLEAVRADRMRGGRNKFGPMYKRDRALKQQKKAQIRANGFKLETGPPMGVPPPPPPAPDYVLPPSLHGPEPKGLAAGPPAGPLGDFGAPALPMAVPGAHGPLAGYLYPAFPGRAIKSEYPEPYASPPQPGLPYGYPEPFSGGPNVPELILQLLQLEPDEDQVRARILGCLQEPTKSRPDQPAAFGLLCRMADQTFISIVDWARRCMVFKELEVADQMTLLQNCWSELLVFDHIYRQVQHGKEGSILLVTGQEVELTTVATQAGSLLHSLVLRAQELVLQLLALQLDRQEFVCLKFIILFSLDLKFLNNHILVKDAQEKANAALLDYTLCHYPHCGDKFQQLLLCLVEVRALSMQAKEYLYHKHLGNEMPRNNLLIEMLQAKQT
Test: SF1 (NR5A1) inverse agonists, counter-screen for LRH-1 inverse agonist project, cell-based, luminescence, high throughput (AID 651614);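 note: cells cotransfected with StAR promoter reporter and SF1 expression vector; 0% = vehicle on cells with receptor and 100% = vehicle on cells lacking receptor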
Conditions: cell-based SF1 luciferase reporter, at 3.6 µM, active compounds read high
Activity calls are given as the source filed them. Rule as the data show it: active = inhibition above about 44%; inactive = the rest.

>  <compound>
CC12CCC(O)CC1CCC1C2CCC2(C)C(C3=CC(=O)OC3)C(O)CC12O (centres undefined)

>  <assay.target>
Steroidogenic factor 1 (Homo sapiens) (UniProt Q13285)

>  <inhibition>
74.8% (active)

$$$$
>  <compound>
COC(=O)C(C)Oc1cc(C)cc2oc(=O)c3c(c12)CCC3 (centres undefined)

>  <assay.target>
Steroidogenic factor 1 (Homo sapiens) (UniProt Q13285)

>  <inhibition>
67.7% (active)

$$$$
>  <compound>
CC(=O)OC1C2(CC3N4C(=O)C5(CO)SSC4(CC31O)C(=O)N5C)OC(C)C(C)(C)C2=O (centres undefined)

>  <assay.target>
Steroidogenic factor 1 (Homo sapiens) (UniProt Q13285)

>  <inhibition>
98.4% (active)

$$$$
>  <compound>
CCC(C)N1C(=O)/C(=C\c2ccc(N3CCCCCC3)cc2)C(=O)NC1=S (centres undefined)

>  <assay.target>
Steroidogenic factor 1 (Homo sapiens) (UniProt Q13285)

>  <inhibition>
40.2% (inactive)

$$$$
>  <compound>
COC1CC2C=C(C)C=CC=CC(=O)NC(c3ccccc3)CC=CCCC(O)CC(=O)C2=C1O (centres undefined)

>  <assay.target>
Steroidogenic factor 1 (Homo sapiens) (UniProt Q13285)

>  <inhibition>
95.6% (active)

$$$$
>  <compound>
CC(=O)OC1CC(OC2C(O)CC(OC3C(O)CC(OC4CCC5(C)C(CCC6C5CC(O)C5(C)C(C7=CC(=O)OC7)CCC65O)C4)OC3C)OC2C)OC(C)C1OC1OC(CO)C(O)C(O)C1O (centres undefined)

>  <assay.target>
Steroidogenic factor 1 (Homo sapiens) (UniProt Q13285)

>  <inhibition>
97.9% (active)

$$$$
>  <compound>
C[C@]12CCC3C(CCC4=CC(O)CC[C@@]43/C=N/O)C1(O)CCC2C1=CC(=O)OC1 (some centres undefined)

>  <assay.target>
Steroidogenic factor 1 (Homo sapiens) (UniProt Q13285)

>  <inhibition>
97% (active)

$$$$
>  <compound>
O=C1NC2C(=CC(O)C(O)C2O)c2cc3c(cc21)OCO3 (centres undefined)

>  <assay.target>
Steroidogenic factor 1 (Homo sapiens) (UniProt Q13285)

>  <inhibition>
96.7% (active)

$$$$
>  <compound>
CCOC(=O)[C@]12Cc3cc(Cl)ccc3[C@H]1N(CC(=O)OC)C(=O)c1ccccc12

>  <assay.target>
Steroidogenic factor 1 (Homo sapiens) (UniProt Q13285)

>  <inhibition>
64.4% (active)

$$$$

Data provenance is PubChem BioAssay.
